Test system: PRKG2;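 also: KINOMEscan kinase panel screen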
Condition notes: concentration: 1 μM, replicates: in singlicate; n = 1
Endpoint name: %Inh (%)
A number alone suffices; assume %.

Sure, the documented %Inh for `O=C1Cc2cc(Nc3nc(NCc4cccc(S(=O)(=O)C(F)(F)F)c4)ncc3C(F)(F)F)ccc2N1` is 1

Sure, the documented %Inh for `CCc1nc(-c2cccc(C)c2)c(-c2ccnc(NCc3ccccc3)c2)s1` is 0

Sure, the documented %Inh for `Cc1cn2c(=O)cc(N3CCOCC3)nc2n1Cc1cccc(Cl)c1Cl` is 0

Sure, the documented %Inh for `Fc1ccc(-c2ncn(CCCN3CCOCC3)c2-c2ccccn2)cc1` is 1

Sure, the documented %Inh for Cc1c(Cn2c(C)nn3c(=O)cc(N4CCOC(C)C4)nc23)cccc1C(F)(F)F (centres unmarked) is 0

Sure, the documented %Inh for `Cl.Oc1cccc(Nc2ccnc3cc(-c4ccncc4)ccc23)c1` is 1

Sure, the documented %Inh for `O=C1NC(=O)C(N2CCc3ccccc32)=C1c1cccc(Cl)c1` is 0

Sure, the documented %Inh for `CSc1ccc(-c2cc3ncnc(SCC(=O)O)c3s2)cc1` is 0

Sure, the documented %Inh for `Cc1cccc(Cn2ccn3c(=O)cc(N4CCOCC4)nc23)c1` is 9

Sure, the documented %Inh for NCC(NC(=O)c1cc(-c2cn[nH]c2)c(-c2ccnc3[nH]ccc23)s1)c1ccccc1.O=C(O)C(F)(F)F.O=C(O)C(F)(F)F (centres unmarked) is 93.6

Sure, the documented %Inh for `NS(=O)(=O)c1cccc(-c2ccc3nccc(-c4cccc(S(N)(=O)=O)c4)c3c2)c1` is 0

Sure, the documented %Inh for COc1ccc(Nc2nccc(N3CCC(NC(=O)Nc4cc(C)ccc4C)C3)n2)cc1 (centres unmarked) is 0

Sure, the documented %Inh for `COC(=O)Nc1nc2cc(Oc3ccc(NC(=O)Nc4cc(F)ccc4F)cc3)ccc2[nH]1.Cl` is 0

Sure, the documented %Inh for `CN(C1=C(c2ccccc2)C(=O)NC1=O)c1ccccc1` is 16

Sure, the documented %Inh for `O=C(NCCCN1CCOCC1)c1cccc(Nc2nccc(Nc3ccc(Oc4ccccc4)cc3)n2)c1` is 5

Sure, the documented %Inh for `Nc1nccc(-c2c(-c3ccc(F)cc3)ncn2C2CCN(CC(F)(F)F)CC2)n1` is 27

Sure, the documented %Inh for `O=c1cc(N2CCOCC2)nc2n(Cc3cccc(C(F)(F)F)c3)ccn12` is 0

Sure, the documented %Inh for `Nc1nc(-c2ccc3c(N)n[nH]c3c2)cc(N2CCCC2)n1` is 75

Sure, the documented %Inh for `O=C(c1ccc(-c2cc(-c3c[nH]nc3-c3ccccn3)ccn2)cc1)N1CCOCC1` is 0

Sure, the documented %Inh for `N#Cc1c(N2CCOCC2)sc(-c2ccn[nH]2)c1-c1ccc(Cl)cc1` is 8

Sure, the documented %Inh for `CN1c2ccc(NCc3ccc(F)cc3)cc2-c2c(cnn2C)S1(=O)=O` is 7

Sure, the documented %Inh for `Cc1ccc(C(=O)NCC(N)=O)cc1-n1c(C)cc(OCc2ccc(F)cc2F)c(Br)c1=O` is 12

Sure, the documented %Inh for `CN(C(=O)c1ccc(-c2cc(-c3c[nH]nc3-c3ccccn3)ccn2)cc1)C1CCOCC1` is 10

Sure, the documented %Inh for `Cc1nnc(-c2ccc(C)c(-c3ccc(C(=O)Nc4ccc(NS(C)(=O)=O)cc4)cc3)c2)o1` is 10

Sure, the documented %Inh for `CNc1ncnc2[nH]ncc12` is 0

Sure, the documented %Inh for `C[C@@H](Oc1cc(-n2cnc3ccc(NC(=O)NC(C)(C)C)cc32)sc1C(N)=O)c1ccccc1Cl` is 15

Sure, the documented %Inh for `COc1ccc(Nc2ncc(C#N)c(Nc3ccccc3C(N)=O)n2)cc1N1CCN(C)CC1.Cl` is 54

Sure, the documented %Inh for `COc1ccc(S(=O)(=O)NC2CCN(c3cc(C)nc(Nc4cccc(C#N)c4)n3)CC2)cc1.O=C(O)C(F)(F)F` is 0

Sure, the documented %Inh for `COc1cc2ncn(-c3cc(OCc4sccc4Cl)c(C(N)=O)s3)c2cc1OC` is 13

Sure, the documented %Inh for `Cc1cccc(-c2nc(Nc3ccc4ncsc4c3)c3ccccc3n2)n1` is 0

Sure, the documented %Inh for `[2H]C([2H])(c1cccc(C(F)(F)F)c1C)n1ccn2c(=O)nc(N3CCOCC3)cc12` is 0

Sure, the documented %Inh for `O=c1cc(N2CCOCC2)nc2n(Cc3cccc4ccccc34)ccn12` is 0

Sure, the documented %Inh for `COc1cc2c(cc1OC[C@@H](O)CO)ncc1c3ccc(C#N)cc3[nH]c21` is 0

Sure, the documented %Inh for `CCCCCc1nc2c(N)ncnc2n1CCCCC` is 0

Sure, the documented %Inh for `Cl.Nc1ncnc2occ(-c3ccc(NC(=O)Nc4cc(C(F)(F)F)ccc4F)cc3)c12` is 7
